Cited source: the supplement of paper PMC10307832

Quick reference for relative viability among some compounds
- System: LK-2
- assay.info: relative viability (nuclei count vs DMSO), 5 days (fraction); higher = more cells survive
- experimental.context: first compound 0.8 µM
Please respond with just the number, no unit label.

1. Oc1nc(-c2ccc(C(F)(F)F)cc2)nc2c1CSCC2 [XAV939] + CC(=O)c1c(C)c2cnc(Nc3ccc(N4CCNCC4)cn3)nc2n(C2CCCC2)c1=O [Palbociclib] (partner 0.5 µM) | 0.609

Supply measured relative viability of C=C1C(=O)O[C@@H](CCCCCCCC)[C@@H]1C(=O)O [C-75] + O=C(CCCCCCC(=O)Nc1ccccc1)NO [Vorinostat] (partner 1 µM) in your reply.
0.319

---

- Tested on: HARA
- assay.info: relative viability (nuclei count vs DMSO), 5 days (fraction); higher = more cells survive
- experimental.context: first compound 1 µM
Quick reference for relative viability among some compounds
Please respond with just the number, no unit label.

Please review the entries below; each comes with its answer.
1) NC(=O)Nc1cc(-c2cccc(F)c2)sc1C(=O)N[C@H]1CCCNC1 [AZD7762] + CS(=O)(=O)N1CCN(Cc2cc3nc(-c4cccc5[nH]ncc45)nc(N4CCOCC4)c3s2)CC1 [Pictilisib] (partner 1 µM) | 0.32
2) NC(=O)Nc1cc(-c2cccc(F)c2)sc1C(=O)N[C@H]1CCCNC1 [AZD7762] + CC1(C)CCC(c2ccc(Cl)cc2)=C(CN2CCN(c3ccc(C(=O)NS(=O)(=O)c4ccc(N[C@H](CCN5CCOCC5)CSc5ccccc5)c(S(=O)(=O)C(F)(F)F)c4)cc3)CC2)C1 [Navitoclax] (partner 0.5 µM) | 0.801
3) NC(=O)Nc1cc(-c2cccc(F)c2)sc1C(=O)N[C@H]1CCCNC1 [AZD7762] + C[C@]1(O)C[C@@H](c2nc(-c3ccc4ccc(-c5ccccc5)nc4c3)c3c(N)nccn32)C1 [Linsitinib] (partner 1 µM) | 0.617

Now examine the next entry.
Supply measured relative viability of NC(=O)Nc1cc(-c2cccc(F)c2)sc1C(=O)N[C@H]1CCCNC1 [AZD7762] + Nc1ncn([C@H]2C[C@H](O)[C@@H](CO)O2)c(=O)n1 [Decitabine] (partner 2 µM) in your reply.
0.211

---

- Test system: RERF-LC-KJ
- assay.info: relative viability (nuclei count vs DMSO), 5 days (fraction); higher = more cells survive
- experimental.context: first compound 0.1 µM
measurement.name: relative viability
Please respond with just the number, no unit label.

1) NC(=O)Nc1cc(-c2cccc(F)c2)sc1C(=O)N[C@H]1CCCNC1 [AZD7762] + Cc1nc(NC(=O)N2CCC[C@H]2C(N)=O)sc1-c1ccnc(C(C)(C)C(F)(F)F)c1 [Alpelisib] (partner 2 µM) | 0.787
2) NC(=O)Nc1cc(-c2cccc(F)c2)sc1C(=O)N[C@H]1CCCNC1 [AZD7762] + CC(=O)Nc1cccc(-n2c(=O)n(C3CC3)c(=O)c3c(Nc4ccc(I)cc4F)n(C)c(=O)c(C)c32)c1 [Trametinib] (partner 0.02 µM) | 0.996

Supply measured relative viability of NC(=O)Nc1cc(-c2cccc(F)c2)sc1C(=O)N[C@H]1CCCNC1 [AZD7762] + Nc1nc2[nH]cc(CCc3ccc(C(=O)N[C@@H](CCC(=O)O)C(=O)O)cc3)c2c(=O)[nH]1 [Pemetrexed] (partner 0.2 µM) in your reply.
0.441

Supply measured relative viability of NC(=O)Nc1cc(-c2cccc(F)c2)sc1C(=O)N[C@H]1CCCNC1 [AZD7762] + CS(=O)(=O)CCNCc1ccc(-c2ccc3ncnc(Nc4ccc(OCc5cccc(F)c5)c(Cl)c4)c3c2)o1 [Lapatinib] (partner 2 µM) in your reply.
0.849

Supply measured relative viability of NC(=O)Nc1cc(-c2cccc(F)c2)sc1C(=O)N[C@H]1CCCNC1 [AZD7762] + COc1cc2c(Oc3ccc(NC(=O)C4(C(=O)Nc5ccc(F)cc5)CC4)cc3F)ccnc2cc1OCCCN1CCOCC1 [Foretinib] (partner 0.25 µM) in your reply.
0.965

Supply measured relative viability of NC(=O)Nc1cc(-c2cccc(F)c2)sc1C(=O)N[C@H]1CCCNC1 [AZD7762] + COc1cccc2cc(-c3nc([C@H]4CC[C@H](C(=O)O)CC4)n4ncnc(N)c34)[nH]c12 [OSI-027] (partner 0.5 µM) in your reply.
0.77

Supply measured relative viability of NC(=O)Nc1cc(-c2cccc(F)c2)sc1C(=O)N[C@H]1CCCNC1 [AZD7762] + CS(=O)(=O)N1CCN(Cc2cc3nc(-c4cccc5[nH]ncc45)nc(N4CCOCC4)c3s2)CC1 [Pictilisib] (partner 1 µM) in your reply.
0.521
